These data points were gathered from ChEMBL document CHEMBL1156605.

# Protocol Text: Metabolic stability in human liver microsomes
# Format: ADME, Microsome
# Condition Description: read-out: Stability
Property Measured: microsomal CLint (µL/min/mg)

Example compounds with recorded microsomal CLint:
O=Cc1ccc2c(c1)OCC[C@H]2NC(=O)C[C@@H]1C(=O)Nc2ccccc2N1S(=O)(=O)c1ccc(Cl)c(Cl)c1 407
CC(C)(C)NCc1ccc2c(c1)OCC[C@H]2NC(=O)C[C@@H]1C(=O)Nc2ccccc2N1S(=O)(=O)c1ccc(Cl)c(Cl)c1 174

I = CC(C)CNCc1ccc2c(c1)OCC[C@H]2NC(=O)C[C@@H]1C(=O)Nc2ccccc2N1S(=O)(=O)c1ccc(Cl)c(Cl)c1
II = CNCc1ccc2c(c1)OCC[C@H]2NC(=O)C[C@@H]1C(=O)Nc2ccccc2N1S(=O)(=O)c1ccc(Cl)c(Cl)c1
I or II : whose microsomal CLint is greater? Write the label of whichever entry you select. I

a = NCc1ccc2c(c1)OCC[C@H]2NC(=O)C[C@@H]1C(=O)Nc2ccccc2N1S(=O)(=O)c1ccc(Cl)c(Cl)c1
b = CC(C)(C)NCc1ccc2c(c1)OCC[C@H]2NC(=O)C[C@@H]1C(=O)Nc2ccccc2N1S(=O)(=O)c1ccccc1
c = O=C(C[C@@H]1C(=O)Nc2ccccc2N1S(=O)(=O)c1ccc(Cl)c(Cl)c1)N[C@@H]1CCOc2cc(CN3CCCCC3)ccc21
Kindly order the items shown according to microsomal CLint, from the highest value down. Your answer should be the labels, listed in the requested order. c, a, b
(c: 389 µL/min/mg, a: 127 µL/min/mg, b: 26 µL/min/mg)

----------
# System Tested: B1 bradykinin receptor (Homo sapiens)
# Sequence (P46663 whole entry): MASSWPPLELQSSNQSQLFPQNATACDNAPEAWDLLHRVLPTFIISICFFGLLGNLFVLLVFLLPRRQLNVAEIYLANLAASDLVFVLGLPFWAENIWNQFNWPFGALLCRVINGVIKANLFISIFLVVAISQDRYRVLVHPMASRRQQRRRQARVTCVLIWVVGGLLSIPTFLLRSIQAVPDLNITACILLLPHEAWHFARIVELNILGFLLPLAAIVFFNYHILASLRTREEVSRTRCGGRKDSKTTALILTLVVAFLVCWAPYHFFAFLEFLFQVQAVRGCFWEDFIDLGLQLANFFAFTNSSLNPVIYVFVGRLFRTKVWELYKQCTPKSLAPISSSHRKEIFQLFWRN
# Protocol Text: Antagonist activity at human bradykinin B1 receptor expressed in CHO-D-/aequorin cells
pIC50: −log10 of the molar value.
Property Measured: pIC50

I = CC(C)(C)NCc1ccc2c(c1)OCC[C@H]2NC(=O)C[C@@H]1C(=O)Nc2ccccc2N1S(=O)(=O)c1ccc(Cl)c(Cl)c1
II = CC(C)(C)NCc1ccc2c(c1)OCC[C@H]2NC(=O)C[C@@H]1C(=O)Nc2ccccc2N1S(=O)(=O)c1ccccc1
III = O=C(C[C@@H]1C(=O)Nc2ccccc2N1S(=O)(=O)c1ccc(Cl)c(Cl)c1)NCCc1ccc(C2=NCCN2)cc1
IV = CC(C)NCc1ccc2c(c1)OCC[C@H]2NC(=O)C[C@@H]1C(=O)Nc2ccccc2N1S(=O)(=O)c1ccc(Cl)c(Cl)c1
Descending sort on pIC50 required. Your answer should be the labels, listed in the requested order. III, II, IV, I
(III: 9.74, II: 9.43, IV: 9.07, I: 8.77)

----------
# System Tested: B1 bradykinin receptor (Homo sapiens)
# Protocol Text: Displacement of [3H]DAK from human bradykinin B1 receptor expressed in CHO-D-/aequorin cells by rapid filtration technique
pKi: −log10 of the molar value.
Property Measured: pKi

a = CC(C)(C)NCc1ccc2c(c1)OCC[C@H]2NC(=O)C[C@@H]1C(=O)Nc2ccccc2N1S(=O)(=O)c1ccccc1
b = CC(C)(C)NCc1ccc2c(c1)OCC[C@H]2NC(=O)C[C@@H]1C(=O)Nc2ccccc2N1S(=O)(=O)c1ccc(Cl)c(Cl)c1
c = COc1ccccc1NC(=O)CC1C(=O)Nc2ccccc2N1S(=O)(=O)c1c(C)cc(C)cc1C (centres undefined)
Descending sort on pKi required. Your answer should be the labels, listed in the requested order. b, a, c
(b: 8.96, a: 8.74, c: 6.30)

----------
# Protocol Text: Metabolic stability in human liver microsomes
# Assay type: ADME, Microsome
# Condition Description: read-out: Stability
Property Measured: microsomal CLint (µL/min/mg)

Example molecules with recorded microsomal CLint:
Cc1ccc(S(=O)(=O)N2c3ccccc3NC(=O)[C@H]2CC(=O)N[C@@H]2CCOc3cc(CN4CCCCC4)ccc32)cc1 128
CN(C)Cc1ccc2c(c1)OCC[C@H]2NC(=O)C[C@@H]1C(=O)Nc2ccccc2N1S(=O)(=O)c1ccc(Cl)c(Cl)c1 208

1 = CC(C)NCc1ccc2c(c1)OCC[C@H]2NC(=O)C[C@@H]1C(=O)Nc2ccccc2N1S(=O)(=O)c1ccc(Cl)c(Cl)c1
2 = O=C(C[C@@H]1C(=O)Nc2ccccc2N1S(=O)(=O)c1ccccc1)N[C@@H]1CCOc2cc(CN3CCCCC3)ccc21
3 = O=C(C[C@@H]1C(=O)Nc2ccccc2N1S(=O)(=O)c1ccc(Cl)c(Cl)c1)N[C@@H]1CCOc2cc(CO)ccc21
With regard to microsomal CLint, arrange the entries in ascending order, please. Your answer should be the labels, listed in the requested order. 2, 1, 3
